MEASURED_ENDPOINT: glass transition temperature (°C)

Here are 2 compounds together with their reported answers.
INSERT INTO measurements (compound, measured) VALUES
  ('*c1ccc(OCOc2ccc(-c3nc(-c4ccc([N+](=O)[O-])cc4)oc3*)cc2)cc1 (repeat unit)', 194.00),
  ('*C(=O)c1ccc2c(c1)C(=O)N(c1cccc(C(=O)N(C)c3ccc(N4C(=O)c5ccc(*)cc5C4=O)cc3)c1)C2=O (repeat unit)', 260.50);

P: *c1ccc(C(=O)OCCCCCCOc2ccc(/C=C3\CCC/C(=C\c4ccc(OCCCCCCOC(=O)c5ccc(-c6nnc(*)o6)cc5)cc4)C3=O)cc2)cc1 (repeat unit)
Q: *CC(F)(F)C(F)(F)C(F)(F)C(F)(F)COC(=O)NCC(F)(F)C(F)(F)C(F)(F)C(F)(F)CNC(=O)O* (repeat unit)
R: *c1ccc2c(c1)C(=O)N(c1cccc(Oc3ccc(C(c4ccc(Oc5cccc(N6C(=O)c7ccc(C(*)(C(F)(F)F)C(F)(F)F)cc7C6=O)c5)cc4)(C(F)(F)F)C(F)(F)F)cc3)c1)C2=O (repeat unit)
S: *CC(*)c1cccc(B(O[Si](C)(C)C)O[Si](C)(C)C)c1 (repeat unit)
Exam item: list the entries in increasing order of glass transition temperature. // format: requested-order list of labels
Q, S, P, R

1: *Oc1ccc(CC(NC(=O)Cc2ccc(OC(=O)CCCCCCC(*)=O)cc2)C(=O)OCCCCCC)cc1 (repeat unit)
2: *Nc1cc([N+](=O)[O-])c(NC(=O)CCCCC(*)=O)cc1/C=C/c1ccc(N(C)C)cc1 (repeat unit)
Lab log: flag the item ( 1 or 2 ) with the smaller glass transition temperature figure. State your choice using its label.
1
